The entries below are paired with their reported pIC50.
# Tested on: Human immunodeficiency virus 1
# EXPERIMENT: Antiviral activity against HIV-1 infected in human C8166 cells
# Type: functional, organism-based
# APPLIED_CONDITIONS: Human immunodeficiency virus 1, C8166
// pIC50: -log10(molar conc.)

| COMPOUND | TESTED_ON | pIC50 |
| --- | --- | --- |
| C=C1CCC2[C@](C)(CO)/C(=N\O)CC[C@@]2(C)[C@@H]1/C=C/C1=CCOC1=O (stereo partly drawn) | Human immunodeficiency virus 1 | 4.39 |
| C=C1CCC2[C@](C)(CO)[C@H](O)CC[C@@]2(C)[C@@H]1CCC1C(=O)N(C)C[C@H]1O (stereo partly drawn) | Human immunodeficiency virus 1 | 5.39 |

Item under review: C=C1CCC2[C@](C)(COC(=O)Cc3cccc4ccccc34)[C@H](OC(=O)c3cccnc3)CC[C@@]2(C)[C@@H]1/C=C/C1=CCOC1=O (stereo partly drawn) . Reported pIC50?
5.01

Source of measurements: ChEMBL document CHEMBL5236551
